biological target: ZIKV NS2B/NS3 (Zika virus); construct: tested against the nonstructural protease of ZIKV (NS2B/NS3); assay: ZIKV NS2B/NS3 protease fluorogenic substrate assay; assay type: biochemical; details: ZIKV NS2B/NS3, substrate 100 μM; read-out: IC50
Sequence (Q32ZE1 1421-1460): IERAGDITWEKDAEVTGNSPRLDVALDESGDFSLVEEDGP
Sequence (Q32ZE1 1499-1676): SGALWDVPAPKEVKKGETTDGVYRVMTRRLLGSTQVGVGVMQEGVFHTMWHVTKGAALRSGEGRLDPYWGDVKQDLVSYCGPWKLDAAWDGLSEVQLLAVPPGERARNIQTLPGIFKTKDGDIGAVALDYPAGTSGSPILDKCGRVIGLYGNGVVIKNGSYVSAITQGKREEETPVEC
Assay readout: pIC50
Just so you know, pIC50 here is -log10 of the concentration in molar units; reply with that number alone.

Examples with answers:
> print(dat)
                                   compound  data.value
1              CC(C)OC(=O)c1cc(O)c(O)c(O)c1        4.70
2         O=C(OCCc1ccccc1)c1cc(O)c(O)c(O)c1        4.71
3  CC(C)=CCCC(C)CCOC(=O)c1cc(O)c(O)c(O)c1 (centres unmarked)        5.72

Field: next compound
Given "O=C(OCCCc1ccccc1)c1cc(O)c(O)c(O)c1" , state its recorded pIC50. 5.32

---

biological target: ZIKV NS2B/NS3 (Zika virus); construct: tested against the nonstructural protease of ZIKV (NS2B/NS3); assay: ZIKV NS2B/NS3 protease fluorogenic substrate assay; format: biochemical; settings: IC50 at substrate 150 μM, binding mechanism study, Boc-Gly-Arg-Arg-AMC 150 μM
Assay readout: pIC50
Just so you know, pIC50 here is -log10 of the concentration in molar units; reply with that number alone.

Give the reported pIC50 for CC(C)=CCCC(C)CCOC(=O)c1cc(O)c(O)c(O)c1 (stereo not shown) [Compound 2g] (system: ZIKV NS2B/NS3 (Zika virus)). 5.53
